target: human Farnesoid X Receptor (FXR) ligand binding domain (GST-FXR LBD) (Homo sapiens); experiment: Human GST-FXR LBD co-activator interaction assay (FXR HTRF assay); conditions: GST-FXR LBD interaction with biotin-labeled SRC-1 peptide, FRET, response relative to GW4064, read-out: FXR coactivator interaction assay (HTRF)
Sequence (Q96RI1 193-472 isoform Q96RI1-2): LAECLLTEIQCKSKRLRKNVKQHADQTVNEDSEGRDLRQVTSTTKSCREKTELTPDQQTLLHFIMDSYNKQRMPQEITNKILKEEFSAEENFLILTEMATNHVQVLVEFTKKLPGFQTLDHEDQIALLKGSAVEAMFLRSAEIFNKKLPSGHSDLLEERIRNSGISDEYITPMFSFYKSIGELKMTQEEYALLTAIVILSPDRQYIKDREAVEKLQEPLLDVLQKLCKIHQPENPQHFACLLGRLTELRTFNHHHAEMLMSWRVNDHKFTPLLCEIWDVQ
Provide the recorded pEC50 for the entries that follow.
One number for each entry, as −log10 of the molar value.

Here is how some molecules turned out for pEC50.
Molecule	pEC50
Cc1ccc2c(c1)-c1c(c(C(=O)N(CC(=O)Nc3cccc(C(=O)O)c3)Cc3ccccc3F)nn1C)CO2	9.10
Cn1nc(C(=O)N(CC(=O)Nc2cccc(C(=O)O)c2)Cc2ccccc2F)c2c1-c1ccccc1OC2	8.27
CC(CNC(=O)CN(Cc1ccccc1F)C(=O)c1nn(C)c2c1COc1ccc(Cl)cc1-2)C(=O)O (stereo not shown)	8.07
Cn1nc(C(=O)N(Cc2ccccc2)Cc2ccc(C(=O)O)cc2)c2c1-c1cc(Cl)ccc1OC2	8.22
Cn1nc(C(=O)N(Cc2ccc(C(=O)O)cc2)Cc2ccccc2F)c2c1-c1cc(Cl)ccc1OC2	7.85

Working through the 2 molecules below one at a time, give pEC50 for each.
1. Cc1cc(C(=O)O)cc(C)c1OCCN(CC1CCCC1)C(=O)c1nn(C)c2c1COc1ccc(Cl)cc1-2
2. Cn1nc(C(=O)N(CC(=O)Nc2cccc(C(=O)O)c2)Cc2ccccc2F)c2c1-c1cc(F)cc(F)c1OC2

[reply]
7.77
8.48
